Test system: P23H opsin
Assay: Rhodopsin purification and regeneration (P23H cells treated with compound, regenerated with 9-cis-retinal, 480-500 nm absorbance)
Settings: P23H cells, compound concentration 10 μM, 48 hours, regeneration with 9-cis-retinal (20 μM)
Classification field: 1 (yes) = Fold Increase Over Control (480-500 nm absorbance as fold increase over the DMSO control) at or over 2 fold; 0 (no) = Fold Increase Over Control (480-500 nm absorbance as fold increase over the DMSO control) under 2 fold.

Test whether the molecule CC1(C)CCCC2CC(=O)C=C21 (stereo not drawn) records Fold Increase Over Control (480-500 nm absorbance as fold increase over the DMSO control) of 2 fold or higher.
0 (no)

# bool: Fold Increase Over Control (480-500 nm absorbance as fold increase over the DMSO control) of CC1(C)CCC(C)(C)C2CC(=O)C=C21 (stereo not drawn) >= 2 fold
0 (no)

Dear colleague, could you confirm whether CC1(C)CCCC2(C)CC(=NO)C=C12 (stereo not drawn) has Fold Increase Over Control (480-500 nm absorbance as fold increase over the DMSO control) at or above 2 fold?
0 (no)

Determine whether this molecule has Fold Increase Over Control (480-500 nm absorbance as fold increase over the DMSO control) no lower than 2 fold: CC1(C)CCC[C@@]2(C)CC(=O)C[C@@H]12 (racemic)
0 (no)

Please tell me: is the molecule CC1(C)CCCC2=C1CCC2=O at or over 2 fold in terms of Fold Increase Over Control (480-500 nm absorbance as fold increase over the DMSO control)?
0 (no)

Hi, just wondering whether CCC1=CC(=O)[C@H]2C(C)(C)CCC[C@@]12C (racemic) shows Fold Increase Over Control (480-500 nm absorbance as fold increase over the DMSO control) of 2 fold or higher.
1 (yes)

Check this molecule for Fold Increase Over Control (480-500 nm absorbance as fold increase over the DMSO control) at or above 2 fold: CON=C1C=C2C(C)(C)CCCC2(C)C1 (stereo not drawn)
0 (no)

hey, is Fold Increase Over Control (480-500 nm absorbance as fold increase over the DMSO control) for this one >= 2 fold? CC(C)(C)C1=CC(=O)[C@H]2C(C)(C)CCC[C@@]12C (racemic)
0 (no)

Say whether CC(C)C1=CC(=O)[C@H]2C(C)(C)CCC[C@@]12C (racemic) shows Fold Increase Over Control (480-500 nm absorbance as fold increase over the DMSO control) of 2 fold or more.
1 (yes)

Please indicate if the recorded Fold Increase Over Control (480-500 nm absorbance as fold increase over the DMSO control) for CC1=CC(=O)[C@H]2C(C)(C)CCC[C@@]12C (racemic) meets or exceeds 2 fold.
0 (no)

Data provenance is patent US9499464B2.
